Listing of recorded Kd by entry.
Target: PCAF (Homo sapiens, UniProt Q92831)
Sequence (Q92831 723-827 limits assumed): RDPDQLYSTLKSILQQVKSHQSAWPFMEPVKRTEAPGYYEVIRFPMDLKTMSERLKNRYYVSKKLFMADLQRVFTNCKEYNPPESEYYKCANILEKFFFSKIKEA
Experiment: BROMOscan ligand-binding assay
Conditions: BROMOscan, PCAF
Quantity: Kd

> print(dat)
                                   compound  data.value
1  O=C(C=CN1[C@H]2CC[C@@H]1c1ncnc(NC3CC3)c1C2)c1ccccc1O [PFI-3 D1]     > 30 µM
2  Cc1cc(=O)n(C)c2cc(N3C(=O)CC[C@H](NS(=O)(=O)CC(C)C)[C@H]3c3ccc(Cl)cc3)ccc12 [LP-99]     > 50 µM

###

Target: CECR2 (Homo sapiens)
Sequence (Q9BXF3 434-538 limits assumed): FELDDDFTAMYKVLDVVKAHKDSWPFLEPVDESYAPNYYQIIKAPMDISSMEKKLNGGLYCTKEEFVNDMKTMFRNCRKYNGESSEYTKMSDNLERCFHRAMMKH
Assay: BROMOscan ligand-binding assay
Settings: KD, CECR2
Quantity: Kd

> print(dat)
                                   compound  data.value
1  O=C(C=CN1CC2CC1CN2c1ccccn1)c1ccccc1O (stereo not drawn)    > 100 µM
2  CCC(=O)N1CCOc2c(cc(-c3ccc(OC)c(OC)c3)cc2OCC2CCCN(C)C2)C1 (stereo not drawn)       17 µM
3                           O=C(O)c1ccccc1O  > 14000 µM

From: paper PMC6478789
